# Test system: CP335
# assayProcedure: qHTS profiling for inhibitors of Plasmodium falciparum proliferation (AID 504749); also: nearly all actives have a fitted effect of over 60% in size; also: potency is read from the fitted curve at half-maximal effect
# protocolConditions: P. falciparum in erythrocytes, SYBR Green DNA, 72 h; series mostly up to 28.7 µM
Records with an inconclusive call do not appear. The source made the active and inactive calls. Calls follow the shape of the dose curve; as a rule, active = well fitted inhibition curve with a large enough effect; inconclusive = small, poorly fitted or top-dose-only effect; inactive = flat fitted curve, though single readings scatter.

{"columns": ["compoundString", "Potency"],
 "data": [
  ["CN1CCN(C(=O)O[C@H]2c3nccnc3C(=O)N2c2ccc(Cl)cn2)CC1", "inactive"],
  ["NCCc1cc(O)c(O)cc1O", "inactive"],
  ["O=[N+]([O-])c1cc([As](=O)(O)O)ccc1O", "4.55 µM (active)"],
  ["Nc1ccncc1", "inactive"],
  ["Fc1ccc(C(OCCN2CCN(CCCc3ccccc3)CC2)c2ccc(F)cc2)cc1", "9.53 µM (active)"],
  ["c1ccc(C2CC2)c(OCC2=NCCN2)c1", "inactive"],
  ["CCN(C(C)=O)c1cccc(-c2ccnc3c(C#N)cnn23)c1", "inactive"],
  ["CC[N+](CC)(CC)CC", "inactive"],
  ["O=c1[nH]c2ccccc2n1CCCN1CCC(n2c(=O)[nH]c3cc(Cl)ccc32)CC1", "10.7 µM (active)"],
  ["CCOP(=S)(OCC)Oc1cc(C)nc(C(C)C)n1", "inactive"],
  ["C=C1CC[C@@]2(O)[C@H]3Cc4ccc(O)c5c4[C@@]2(CCN3CC2CC2)[C@H]1O5", "inactive"],
  ["OCCOc1ccccc1", "inactive"]
]}

---

# assayProcedure: Primary qHTS for Vero E6 cytotoxicity: counterscreen for inhibitors of SARS-S pseudo-typed particle cell entry (AID 1479150)
# protocolConditions: cell viability; series mostly up to 57.1 µM
Inconclusive results are not listed. Active and inactive are the calls of the source. Calls follow the shape of the full dose curve.

{"columns": ["compoundString", "outcome"],
 "data": [
  ["CCOc1ccccc1OCCN[C@H](C)Cc1ccc(OC)c(S(N)(=O)=O)c1", "inactive"],
  ["O=c1[nH]cnc2c1ncn2[C@H]1CC[C@@H](CO)O1", "inactive"],
  ["COc1nc(N)nc2c1ncn2[C@@H]1O[C@H](CO)[C@@H](O)[C@@H]1O", "inactive"],
  ["COC(=O)N[C@H](C(=O)N[C@@H](Cc1ccccc1)[C@@H](O)CN(Cc1ccc(-c2ccccn2)cc1)NC(=O)[C@@H](NC(=O)OC)C(C)(C)C)C(C)(C)C", "inactive"],
  ["COC(c1ccccc1)(c1ccccc1)[C@H](Oc1nc(C)cc(C)n1)C(=O)O", "inactive"]
]}

---

# Tested on: OV90
# assayProcedure: Primary qHTS to identify gynecologic anti-cancer compounds using libraries of approved drugs and bioactive compounds (AID 1345084); also: nearly all actives have a fitted effect of over 55% in size
# protocolConditions: Gynecologic cancer cell panel viability, ATPlite luminescence, 48 h; series mostly up to 57.5 µM
Results filed as inconclusive are left out. Calls of active or inactive are those of the source. The call rests on the fitted dose curve; in most records, active means well fitted cell-killing curve with a large enough effect; inconclusive means small, poorly fitted or top-dose-only effect, or effect the other way; inactive means flat fitted curve, though single readings scatter.
Possible outcomes: active, inactive

{"columns": ["compound", "group"],
 "data": [
  ["N[C@@H]1C[C@H]1c1ccccc1", "inactive"],
  ["c1ccc(C2CC2)c(OCC2=NCCN2)c1", "inactive"],
  ["O=c1oc2ccccc2c(O)c1C(CC(O)c1ccc(-c2ccc(Br)cc2)cc1)c1ccccc1 (stereo not given)", "inactive"],
  ["NCC1(CC(=O)O)CCCCC1", "inactive"],
  ["C[C@H]1O[C@@H](O[C@H]2[C@@H](O)C[C@H](O[C@H]3[C@@H](O)C[C@H](O[C@H]4CC[C@@]5(C)[C@H](CC[C@@H]6[C@@H]5CC[C@]5(C)[C@@H](C7=CC(=O)OC7)CC[C@]65O)C4)O[C@@H]3C)O[C@@H]2C)C[C@H](O)[C@@H]1O", "active"],
  ["Oc1cccc2cccnc12", "inactive"],
  ["COC[C@@H](NC(C)=O)C(=O)NCc1ccccc1", "inactive"],
  ["c1ccc2c(c1)Nc1ccccc1S2", "inactive"],
  ["CCN(CC)CCOC(=O)C(O)(c1ccccc1)c1ccccc1", "inactive"],
  ["CC(=O)[C@H]1CC[C@H]2[C@@H]3CC[C@H]4C[C@H](O)CC[C@]4(C)[C@H]3C(=O)C[C@]12C", "inactive"]
]}

---

# assayProcedure: qHTS for inhibitors of adenylyl cyclases using a fission yeast platform: a pilot screen against the NCATS LOPAC library (AID 1347410);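 also: plate controls were DMSO vehicle for no effect and DPI positive control for full effect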
# protocolConditions: S. pombe CHP2027, fbp1-GFP fluorescence, 18 h; series mostly up to 57.5 µM
Activity calls are given as the source filed them. Calls follow the shape of the dose curve; as a rule, active = well fitted curve in the direction sought with a large enough effect; inconclusive = small, poorly fitted or top-dose-only effect, or effect the other way, or another doubt; inactive = no such curve, though single readings can be large or run the other way.

{"columns": ["molecule", "outcome"],
 "data": [
  ["CC(CCc1ccccc1)NC(C)C(O)c1ccc(O)cc1 (configuration not stated)", "inactive"],
  ["CC(O)(CS(=O)(=O)c1ccc(F)cc1)C(=O)Nc1ccc(C#N)c(C(F)(F)F)c1 (configuration not stated)", "inactive"],
  ["NCC(CC(=O)O)c1ccc(Cl)cc1 (configuration not stated)", "inactive"],
  ["NCC(O)c1ccc(O)cc1 (configuration not stated)", "inactive"],
  ["CC(C)=CCOc1c2occc2cc2ccc(=O)oc12", "inactive"],
  ["CCCN1CCC[C@@H]2Cc3[nH]ncc3C[C@H]21", "inactive"],
  ["NCC1(CC(=O)O)CCCCC1", "inactive"]
]}

---

# Tested on: MKL-2
# assayProcedure: qHTS assay to identify novel small-molecules to repurpose for Merkel cell carcinoma treatment (AID 1296009); also: nearly all actives have a fitted effect of over 60% in size
# protocolConditions: MCC and control cell lines, CellTiter-Glo viability, 72 h; series mostly up to 46 µM
Records with an inconclusive call do not appear. Activity calls are given as the source filed them. Calls come from the whole dose curve; as a rule, active = well fitted inhibition curve with a large enough effect; inconclusive = small, poorly fitted or top-dose-only effect; inactive = flat fitted curve, though single readings scatter.
Labels: 1 = active, 0 = inactive

{"columns": ["compound", "group"],
 "data": [
  ["Clc1cccc(N2CCNCC2)c1", 0],
  ["Cc1cc(SCc2sc(-c3ccc(C(F)(F)F)c(F)c3)nc2C)ccc1OCC(=O)O", 0],
  ["O=c1oc2ccccc2c(O)c1C(CC(O)c1ccc(-c2ccc(Br)cc2)cc1)c1ccccc1 (stereo unspecified)", 0],
  ["CCC(C(N)=O)N1CCCC1=O (stereo unspecified)", 0],
  ["C[C@@H]1[C@@H](CC(C[C@H]2O[C@@H]3O[C@]4(C)CC[C@@H]5[C@H](C)CC[C@@H]([C@H]2C)[C@@]35OO4)C[S+](=O)([O-])c2ccc(COC(=O)N(C)C)cc2)O[C@@H]2O[C@]3(C)CC[C@H]4[C@H](C)CC[C@@H]1[C@@]24OO3 (stereo partly specified)", 1],
  ["CC[C@@H](CO)NC(=O)[C@@H]1C=C2c3cccc4[nH]cc(c34)C[C@H]2N(C)C1", 0],
  ["CC(C)CC(N(C)C)C1(c2ccc(Cl)cc2)CCC1 (stereo unspecified)", 0],
  ["N[C@@H](Cc1ccc(Oc2cc(I)c(O)c(I)c2)c(I)c1)C(=O)O", 0],
  ["C[C@]12CC[C@H]3[C@@H](CCC4=CC(=O)CC[C@@H]43)[C@@H]1CC[C@@H]2OC(=O)CCc1ccccc1", 0],
  ["CCN(C(C)=O)c1cccc(-c2ccnc3c(C#N)cnn23)c1", 0],
  ["COC1(CS(=O)c2ccccc2)CCN(CCc2c[nH]c3ccc(F)cc23)CC1 (stereo unspecified)", 0],
  ["CCN(CC)C(=O)N[C@@H]1C=C2c3cccc4[nH]cc(c34)C[C@@H]2N(C)C1", 0],
  ["CC(C)(C)NCC(O)c1cc(Cl)c(N)c(Cl)c1 (stereo unspecified)", 0],
  ["C[C@H]1O[C@@H](O[C@H]2[C@@H](O)C[C@H](O[C@H]3[C@@H](O)C[C@H](O[C@H]4CC[C@@]5(C)[C@H](CC[C@@H]6[C@@H]5CC[C@]5(C)[C@@H](C7=CC(=O)OC7)CC[C@]65O)C4)O[C@@H]3C)O[C@@H]2C)C[C@H](O)[C@@H]1O", 1],
  ["CNC(=O)N1N=C(c2ccc(N)cc2)c2cc3c(cc2CC1C)OCO3 (stereo unspecified)", 1],
  ["O=C(O)C(=O)c1cn(Cc2ccccc2)c2ccc(-c3ccc(OC(F)(F)F)cc3)cc12", 0],
  ["CN(C)CCc1ccc(O)cc1", 0],
  ["CNC(=O)c1ccc(N2C(=S)N(c3ccc(C#N)c(C(F)(F)F)c3)C(=O)C23CCC3)cc1F", 0],
  ["CCN(CC)CCN1C(=O)CN=C(c2ccccc2F)c2cc(Cl)ccc21", 0],
  ["c1ccc2c(c1)Nc1ccccc1S2", 0],
  ["CC(C)NCC(O)c1ccccc1Cl (stereo unspecified)", 0]
]}

---

# assayProcedure: Cell Viability - Renal Proximal Tubule (AID 545);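 also: cells exposed to compound for 40 hours; 0% = DMSO only and -100% = 100 µM tamoxifen; nearly all actives have a fitted effect of over 40% in size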
# protocolConditions: renal proximal tubule cells viability; at 91.7 µM (top of the series) unless noted
Results filed as inconclusive are left out. The source made the active and inactive calls. Calls come from the whole dose curve; as a rule, active = well fitted cell-killing curve with a large enough effect; inconclusive = small, poorly fitted or top-dose-only effect; inactive = flat fitted curve, though single readings scatter.
Outcome codes: true (1) = active, false (0) = inactive

{"columns": ["molecule", "group"],
 "data": [
  ["CNCC(O)c1ccc(O)cc1 (configuration not stated)", "false (0)"],
  ["C[C@]12C/C(=C/O)C(=O)C[C@@H]1CC[C@@H]1[C@@H]2CC[C@@]2(C)[C@H]1CC[C@]2(C)O", "true (1)"],
  ["OCCOc1ccccc1", "false (0)"],
  ["Oc1ccc(Cl)cc1Cc1ccccc1", "false (0)"],
  ["CCCC(C)(COC(N)=O)COC(=O)NC(C)C (configuration not stated)", "false (0)"],
  ["Oc1ccccc1-c1ccccc1", "false (0)"],
  ["Clc1ccc(COC(Cn2ccnc2)c2ccc(Cl)cc2Cl)cc1 (configuration not stated)", "true (1)"]
]}
